- subject.of.test: Cytochrome P450 2C19 (Homo sapiens, UniProt P33261)
- Sequence (P33261 whole entry): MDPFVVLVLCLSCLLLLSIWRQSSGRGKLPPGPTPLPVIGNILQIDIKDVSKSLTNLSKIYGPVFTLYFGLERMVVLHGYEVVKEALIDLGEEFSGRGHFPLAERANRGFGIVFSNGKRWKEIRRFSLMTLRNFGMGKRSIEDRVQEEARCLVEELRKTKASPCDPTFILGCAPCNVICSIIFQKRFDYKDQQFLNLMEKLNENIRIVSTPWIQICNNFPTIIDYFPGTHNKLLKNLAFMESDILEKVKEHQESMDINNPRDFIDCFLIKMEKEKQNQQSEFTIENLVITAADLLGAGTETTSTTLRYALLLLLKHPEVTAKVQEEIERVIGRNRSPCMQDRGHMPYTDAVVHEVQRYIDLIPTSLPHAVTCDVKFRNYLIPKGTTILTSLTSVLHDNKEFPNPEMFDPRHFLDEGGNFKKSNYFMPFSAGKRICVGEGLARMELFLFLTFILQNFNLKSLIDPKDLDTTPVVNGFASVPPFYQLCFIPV
- run.description: Inhibition of CYP2C19 (unknown origin)
- Assay type: ADME
endpoint.label: IC50

IN: What value of IC50 has been recorded for this entry: "COC(=O)N(CC(=O)O)Cc1cc(OCc2nc(-c3ccc(Cl)cc3)oc2C)ccc1F"
OUT: > 40 µM

====

- subject.of.test: Cytochrome P450 2C9 (Homo sapiens)
- Sequence (P11712 whole entry): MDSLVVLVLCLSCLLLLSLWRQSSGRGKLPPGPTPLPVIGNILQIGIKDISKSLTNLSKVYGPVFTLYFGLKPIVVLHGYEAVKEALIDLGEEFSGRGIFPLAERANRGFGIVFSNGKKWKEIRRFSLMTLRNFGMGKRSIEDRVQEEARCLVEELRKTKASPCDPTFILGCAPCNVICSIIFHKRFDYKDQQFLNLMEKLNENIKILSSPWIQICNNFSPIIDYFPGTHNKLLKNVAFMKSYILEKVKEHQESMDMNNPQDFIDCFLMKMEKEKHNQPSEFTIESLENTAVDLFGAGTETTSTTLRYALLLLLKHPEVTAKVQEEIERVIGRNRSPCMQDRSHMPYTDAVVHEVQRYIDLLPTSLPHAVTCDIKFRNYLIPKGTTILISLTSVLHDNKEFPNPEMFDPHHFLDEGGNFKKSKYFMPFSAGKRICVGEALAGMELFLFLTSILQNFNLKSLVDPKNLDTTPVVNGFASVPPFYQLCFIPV
- run.description: Inhibition of CYP2C9 in human TC5 cells
- Type: ADME, cell-based
pIC50: −log10 of the molar value.
endpoint.label: pIC50

IN: Returns the measured pIC50 for the input molecule. Input: "COC(=O)N(CC(=O)O)Cc1cc(OCc2nc(-c3ccc(Cl)cc3)oc2C)ccc1F"
OUT: < 3.82

Origin of the recorded values: ChEMBL document CHEMBL3826929
